Target or system Factor D (Homo sapiens (Human)): recorded pIC50 listed per item.
pIC50: −log10 of the molar value.

# COMPOUND, ASSAY ENDPOINT, EXPERIMENTAL VALUE
rows = [
    ("CC(N)c1cccc(-c2cc(COc3ccccc3CC(=O)O)cc3ccoc23)n1 (centres unmarked) [Compound 100c]", "pIC50", "5.00 to 6.00"),
    ("NCc1cccc(-c2cc(COc3cccnc3CC(=O)O)cc3ccoc23)c1 [Compound 230e]", "pIC50", "5.00 to 6.00"),
    ("Cc1cccc(OCc2cc(-c3cccc(CN)c3)c3occc3c2)c1CC(=O)O [Compound 314f]", "pIC50", "> 6.00"),
    ("COCc1cc2cc(COc3cc(C)ccc3CC(=O)O)cc(-c3cccc(C(N)CF)c3)c2o1 (single isomer, unassigned; (+)) [Compound 455c]", "pIC50", "> 6.00"),
    ("CC(N)c1cc2cc(COc3ccccc3CC(=O)O)cc(-c3cccc(CN)c3)c2o1 (single isomer, unassigned; (-)) [Compound 442d]", "pIC50", "> 6.00"),
]

Q: Write down the reported pIC50 of Cc1ccc(OCc2cc(-c3cccc(CN)c3)c3occc3c2)c(CC(=O)O)c1 [Compound 162e] , test system: Factor D (Homo sapiens (Human)).
Sequence (P00746 26-253): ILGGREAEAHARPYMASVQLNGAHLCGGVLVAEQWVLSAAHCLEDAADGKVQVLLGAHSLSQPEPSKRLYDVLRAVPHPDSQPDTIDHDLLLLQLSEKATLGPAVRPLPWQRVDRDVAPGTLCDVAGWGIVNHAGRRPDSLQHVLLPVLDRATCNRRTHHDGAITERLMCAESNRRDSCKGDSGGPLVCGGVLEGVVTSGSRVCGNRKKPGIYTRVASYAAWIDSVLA
Result: > 6.00

Q: Write down the reported pIC50 of Cc1cc2c(-c3cccc(CN)c3F)cc(COc3ccccc3CC(=O)O)cc2o1 [Compound 409f] , test system: Factor D (Homo sapiens (Human)).
Result: > 6.00

Q: Write down the reported pIC50 of NCc1cccc(-c2cc(NC(=O)[C@@H]3CCCN3C(=O)NCc3cccc(Cl)c3F)cc3ccoc23)c1 [Compound 507f] , test system: Factor D (Homo sapiens (Human)).
Result: 5.00 to 6.00
